The measurements presented in this section are drawn from PubChem BioAssay (NCI).

tested on: NCI-H226 lung; assay: NCI tumour cell line growth inhibition, 48 h
property_label: TGI

Consider the worked cases shown below.
INSERT INTO measurements (molecule, result) VALUES
  ('Cc1nc2ccccc2c(/C=C/c2ccc(C(F)(F)F)cc2)c1C(=O)/C=C/c1ccccc1', '3.14 µM'),
  ('O=C1C[C@@H]2[C@@H](C=CC23CCCC3)N1O', '> 100 µM'),
  ('O=C(c1ccsc1)c1nccc2c1cnc1ccccc12', '> 100 µM');

State the recorded TGI for every item in the following list.
1. CCCCCCCCCCCCNCCCc1ccccc1
2. NC(=S)N/N=C1\CCc2ccccc2C1

1: 3.61 µM; 2: > 100 µM
